- experiment: chemical genetic growth profiling, strain panel (AID 1159580);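 note: tested at 20 µM; growth read once vehicle control cultures reached saturation at 30 °C; 1 = growth at the plate median or of vehicle wells; lower values mean less growth of the strain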
- setup-conditions: S. cerevisiae deletion strains, growth OD, locus YLR370C, strain arc18, stronger effect = lower value
Among all 5,500 compounds or so, about 2,000 (36%) were called active. Not shown: some 18% with an inconclusive outcome. Some of the results follow.
measurement-type: normalized growth
Lab note: jot the number down without any unit.

- molecule: "O=C(O)c1ccccc1"
  normalized growth: 0.949
- molecule: "O=C(O)c1ccc(S(=O)(=O)N(Cl)Cl)cc1"
  normalized growth: 0.974
- molecule: "O=C(O)c1cccnc1"
  normalized growth: 1

Recorded normalized growth for CC(C)c1ccc2c(c1)CCC1[C@](C)(CN)CCC[C@]21C (some centres not stated) , please?
0.865

Recorded normalized growth for `Oc1c(Cl)cc(Cl)cc1Sc1cc(Cl)cc(Cl)c1O` , please?
0.0603

Recorded normalized growth for CO[C@H]1CC(O[C@@H]2/C(C)=C/C[C@@H]3C[C@@H](C[C@]4(CC[C@H](C)[C@@H](C5CCCCC5)O4)O3)OC(=O)[C@@H]3C=C(C)/C(=N\O)[C@H]4OC/C(=C\C=C\[C@@H]2C)[C@]43O)O[C@@H](C)C1O (some centres not stated) , please?
0.993

Recorded normalized growth for `Nc1ccc(S(=O)(=O)NC(=O)c2ccccc2)cc1` , please?
0.991

Recorded normalized growth for `O=C(NCO)c1cccnc1` , please?
1.01

Recorded normalized growth for `NC(=O)c1cccnc1` , please?
0.986

Recorded normalized growth for `NC1=NCCN1CC(=O)O` , please?
1.01

Recorded normalized growth for `CCCN(CCC)S(=O)(=O)c1ccc(C(=O)O)cc1` , please?
0.974

Recorded normalized growth for `Cc1cn[nH]c1` , please?
1.03

Source: PubChem BioAssay AID1159580
